Recorded logP values for a group of compounds are listed next.
# protocol.summary: method code SF-AS, from DOI: 10.1002/1520-6017(200012)89:12<1525::aid-jps3>3.0.co;2-t
Give a plain numeric answer without units written out.

CCC(=O)NCCCCCN(O)C(=O)CCC(=O)NCCCCCN(O)C(=O)CCC(=O)NCCCCCN(O)C(C)=O | 0.26
CC(=O)NCCCCCN(O)C(=O)CCC(=O)NCCCCCN(O)C(=O)CCC(=O)NCCCCCN(O)C(C)=O | 0.1
CC(=O)N(O)CCCCCNC(=O)CCC(=O)N(O)CCCCCNC(=O)CCC(=O)N(O)CCCCCNC(=O)Cc1ccccc1 | 0.9
CCCCC(=O)NCCCCCN(O)C(=O)CCC(=O)NCCCCCN(O)C(=O)CCC(=O)NCCCCCN(O)C(C)=O | 0.88
CCCC(=O)NCCCCCN(O)C(=O)CCC(=O)NCCCCCN(O)C(=O)CCC(=O)NCCCCCN(O)C(C)=O | 0.42

Give its logP value. Item: CC(=O)N(O)CCCCCNC(=O)CCC(=O)N(O)CCCCCNC(=O)CCC(=O)N(O)CCCCCNC(=O)c1ccccc1
0.86

What do we get for CC(=O)N(O)CCCCCNC(=O)CCC(=O)N(O)CCCCCNC(=O)CCC(=O)N(O)CCCCCNC=O ?
-0.1

What do we get for CC(=O)N(O)CCCCCNC(=O)CCC(=O)N(O)CCCCCNC(=O)CCC(=O)N(O)CCCCCNC(=O)CCC(=O)O ?
-0.5

----------
# protocol.summary: method code SF-AS, from DOI: 10.1002/1520-6017(200012)89:12<1525::aid-jps3>3.0.co;2-t
# applied.conditions: pH 7.4
measured.metric: logD

CCCCCCCC(=O)NCCCCCN(O)C(=O)CCC(=O)NCCCCCN(O)C(=O)CCC(=O)NCCCCCN(O)C(C)=O | 1.09

Give its logD value. Item: CCCCCC(=O)NCCCCCN(O)C(=O)CCC(=O)NCCCCCN(O)C(=O)CCC(=O)NCCCCCN(O)C(C)=O
1.1
